Test system: SNB-19 CNS
Assay: NCI-60 one-dose screen, 48 h (100 = growth as untreated, 0 = no growth, -100 = all killed)
Conditions: 10 µM unless noted
Description: Growth inhibition of the SNB-19 human tumor cell line is measured as a screen for anti-cancer activity. Cells are grown in 96 well plates and exposed to the test compound for 48 hours. Compounds are tested at a single concentration, which is 10^-5 M for most compounds. The reported endpoint is percent growth (GI% or GIPRCNT), where numbers from 0 - 100% represent growth inhibition, and numbers from -100% - 0 represent cell death. For example, a value of 40 represents 60% growth inhibition. […]
About 83,000 compounds went through this panel and 20% of them were active in at least one assay; those are over-represented in the sample as a whole.
Below, each of the compounds is paired with its reported growth value.
Value expressed in %; do not type the unit.

INSERT INTO assay_data (compound, assay_endpoint, quantitative_result) VALUES
  ('CO[C@H]1C[C@@H]2CC[C@@H](C)[C@@](O)(O2)C(=O)C(=O)N2CCCC[C@H]2C(=O)O[C@H]([C@H](C)C[C@@H]2CC[C@@H](OC(=O)C(C)(CO)CO)[C@H](OC)C2)CC(=O)[C@H](C)/C=C(\C)[C@@H](O)[C@@H](OC)C(=O)[C@H](C)C[C@H](C)\C=C/C=C/C=C/1C', 'growth', 30.6),
  ('CN(N)c1nc2sc3c(c2c(=O)[nH]1)CCCC3', 'growth', 105),
  ('O=C(O)c1ccc(Nc2ncc3c(n2)-c2ccc(Cl)cc2C(c2c(F)cccc2F)=NC3)cc1', 'growth', 54.6),
  ('COc1cc(-c2nc(C(=O)NCC(=O)O)nn2-c2ccc(Cl)cc2)cc(OC)c1OC', 'growth', 109),
  ('Cc1ccc(Nc2nccc(N(C)c3ccc4c(C)n(C)nc4c3)n2)cc1S(N)(=O)=O', 'growth', 30.9),
  ('CC(C)(C)C(=O)OCOP(=O)(OCOC(=O)C(C)(C)C)C1CCCN(OC(=O)c2ccccc2)C1=O (configuration not stated)', 'growth', 14),
  ('CC(C)[C@@H](C)/C=C/[C@@H](C)[C@H]1CCC2=C3C=CC4=CC(=O)CC[C@]4(C)[C@H]3CC[C@@]21C', 'growth', 100),
  ('CC1(C)NC(=O)c2[nH]c3c(Cl)c(Cl)ccc3c2C1C#N (configuration not stated)', 'growth', 87.5);

stdin: Reported growth for COc1cc(-c2cc(-c3ccc(Nc4ccnc5cc(Cl)ccc45)cc3)nc(N3CCOCC3)n2)cc(OC)c1OC : what is it?
stdout: 28.8

stdin: Reported growth for O=C1CC(c2ccc(Cl)cc2)c2ncn(-c3cccc(Cl)c3)c2N1 (configuration not stated) : what is it?
stdout: 50

stdin: Reported growth for CNC(=O)c1cc(Oc2ccc(NC(=O)Nc3ccc(Cl)c(C(F)(F)F)c3)c(F)c2)ccn1 : what is it?
stdout: 3.52

stdin: Reported growth for Cc1cccc(C)c1N1C(c2ccccc2)=NNC12C=CC(=O)c1c(O)cccc12 (configuration not stated) : what is it?
stdout: 69.7

###

Below, each of the molecules is paired with its reported growth value.
Test system: T-47D breast
Assay: NCI-60 one-dose screen, 48 h (100 = growth as untreated, 0 = no growth, -100 = all killed)
Conditions: 10 µM unless noted
Compounds without any hit were thinned out: in the full panel of roughly 83,000, 20% have a hit.
Value expressed in %; do not type the unit.

INSERT INTO assay_data (molecule, unit_annotation, quantitative_result) VALUES
  ('Cc1cc(NCC(=O)Nc2ccc(-c3nc4ccccc4s3)cc2)no1', '%', 80.3);

stdin: Please state recorded growth (tested on T-47D breast) of CCN(CC)CCN1C(=O)c2cccc3c(-c4ccc5c(c4)ncn5C4CCCCC4)ccc(c23)C1=O
stdout: -9.17

stdin: Please state recorded growth (tested on T-47D breast) of Cn1ccnc1C(=O)/C=C/c1ccc(CC(=O)Nc2ccc(S(F)(F)(F)(F)F)cc2)cc1
stdout: -7.73

stdin: Please state recorded growth (tested on T-47D breast) of Cc1ccc(Nc2nccc(N(C)c3ccc4c(C)n(C)nc4c3)n2)cc1S(N)(=O)=O
stdout: 4.07

stdin: Please state recorded growth (tested on T-47D breast) of C[C@@H]1COCCN1c1cc(C2([S@](C)(=N)=O)CC2)nc(-c2ccnc3[nH]ccc23)n1
stdout: 21.4

stdin: Please state recorded growth (tested on T-47D breast) of Cc1cc(C(O)CN(C)C)cc2c1ccc1cc(C(C)C)ccc12 (stereo not drawn)
stdout: -33

stdin: Please state recorded growth (tested on T-47D breast) of C/C(=N\NC(=O)Cn1c(-c2ccc(S(C)(=O)=O)cc2)nc2ccccc21)c1ccc(Cl)cc1
stdout: 81.3

stdin: Please state recorded growth (tested on T-47D breast) of Cc1cn(-c2cc(NC(=O)c3ccc(C)c(Nc4nccc(-c5cccnc5)n4)c3)cc(C(F)(F)F)c2)cn1
stdout: 45.6

stdin: Please state recorded growth (tested on T-47D breast) of COc1ccc2c(CCc3ccc(Cl)cc3)c3[n+](cc2c1OC)CCc1cc2c(cc1-3)OCO2
stdout: 24.9

stdin: Please state recorded growth (tested on T-47D breast) of CO[C@@H](C)Cn1c(=O)n(C)c2cnc3ccc(-c4cncc(C(C)(C)O)c4)cc3c21
stdout: -21.9

stdin: Please state recorded growth (tested on T-47D breast) of O=C1C=CC2(NN=C(c3ccccc3)N2c2cccc(Cl)c2)c2cccc(O)c21 (stereo not drawn)
stdout: 101

stdin: Please state recorded growth (tested on T-47D breast) of CC(C)(C)c1nc(-c2cccc(NS(=O)(=O)c3c(F)cccc3F)c2F)c(-c2ccnc(N)n2)s1
stdout: 92.6

stdin: Please state recorded growth (tested on T-47D breast) of Cn1ncc(Cl)c1-c1cc(C(=O)N[C@H](CN)Cc2ccc(F)c(F)c2)oc1Cl
stdout: -50.7

stdin: Please state recorded growth (tested on T-47D breast) of COc1cc(NCCN(CC(C)C)CC(C)C)c2ncc(C)cc2c1
stdout: 20.3

stdin: Please state recorded growth (tested on T-47D breast) of Cc1cc(C(=O)NOCCO)c(Nc2ccc(I)cc2F)n(C)c1=O
stdout: 103

stdin: Please state recorded growth (tested on T-47D breast) of C=CC(=O)Nc1cccc(Oc2nc(Nc3ccc(N4CCN(C)CC4)cc3)nc3ccsc23)c1
stdout: -51

stdin: Please state recorded growth (tested on T-47D breast) of Cc1cc(Oc2ccccc2)ccc1Nc1ncnc2ccc(-c3cnc(Cl)c(NS(C)(=O)=O)c3)cc12
stdout: -22.4

stdin: Please state recorded growth (tested on T-47D breast) of CCN1/C(=C/C=C/c2n(-c3ccccc3)c3ccc(-c4nc5ccccc5s4)cc3[n+]2CC)N(c2ccccc2)c2ccc(-c3nc4ccccc4s3)cc21
stdout: 5.56

stdin: Please state recorded growth (tested on T-47D breast) of O=C(NC[C@H](O)CO)c1ccncc1Nc1ccc(I)cc1F
stdout: 47.7

stdin: Please state recorded growth (tested on T-47D breast) of CCCCOc1nc2cc(Cl)ccc2cc1/C=C/c1cc(/C=C/c2cc3ccc(Cl)cc3nc2OCCCC)n(-c2ccccc2)n1
stdout: 65.7

stdin: Please state recorded growth (tested on T-47D breast) of CCOc1ccc(N=C(C)Nc2ccc(OCC)cc2)cc1
stdout: 105

stdin: Please state recorded growth (tested on T-47D breast) of C=C1CC[C@@H]2[C@](C)(COC(C)=O)[C@H](OC(C)=O)CC[C@@]2(C)[C@@H]1C/C=C1/C(=O)OC[C@H]1OC(C)=O
stdout: 42.8

stdin: Please state recorded growth (tested on T-47D breast) of Cc1nc(Nc2n[nH]c3c2CN(C(=O)N[C@H](CN(C)C)c2ccccc2)C3(C)C)c2sccc2n1
stdout: -25.2

stdin: Please state recorded growth (tested on T-47D breast) of CCCCN1C(=O)c2cccc3c(-c4ccc5c(c4)ncn5C4CCCCC4)ccc(c23)C1=O
stdout: 81.9

stdin: Please state recorded growth (tested on T-47D breast) of CC(C)[C@@H](C)/C=C/[C@@H](C)[C@H]1CCC2=C3C=CC4=CC(=O)CC[C@]4(C)[C@H]3CC[C@@]21C
stdout: 91.3

stdin: Please state recorded growth (tested on T-47D breast) of CC(=O)OC1Oc2ccccc2-c2oc(=O)c(-c3cc4ccc(N(C)C)cc4oc3=O)cc21 (stereo not drawn)
stdout: -4.17

stdin: Please state recorded growth (tested on T-47D breast) of Clc1ccc(/C=C/c2cc(N3CCOCC3)c3cc(Cl)c(Cl)cc3n2)cc1
stdout: 91.3

Attribution: PubChem BioAssay (NCI)
